- study_target: P2X purinoceptor 7 (Homo sapiens)
- Sequence (Q99572 whole entry): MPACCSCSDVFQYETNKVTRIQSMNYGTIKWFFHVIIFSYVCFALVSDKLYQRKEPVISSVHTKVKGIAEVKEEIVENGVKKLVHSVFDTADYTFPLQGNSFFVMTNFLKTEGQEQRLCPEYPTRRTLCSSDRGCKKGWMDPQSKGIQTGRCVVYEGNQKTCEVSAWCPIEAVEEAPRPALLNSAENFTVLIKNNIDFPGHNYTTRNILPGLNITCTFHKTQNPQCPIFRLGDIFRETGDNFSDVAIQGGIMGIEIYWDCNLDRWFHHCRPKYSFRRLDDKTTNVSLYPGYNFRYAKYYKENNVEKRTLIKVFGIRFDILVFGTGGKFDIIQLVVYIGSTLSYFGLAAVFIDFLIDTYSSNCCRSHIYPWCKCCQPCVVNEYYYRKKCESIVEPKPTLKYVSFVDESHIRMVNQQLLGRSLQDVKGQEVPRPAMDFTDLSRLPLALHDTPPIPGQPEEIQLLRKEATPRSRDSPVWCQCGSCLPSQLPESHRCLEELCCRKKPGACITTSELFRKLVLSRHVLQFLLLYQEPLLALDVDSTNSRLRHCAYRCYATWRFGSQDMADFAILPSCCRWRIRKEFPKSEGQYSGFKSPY
- test_description: Antagonist activity at human P2X7R expressed in HEK293 cells assessed as inhibition of ATP-induced […] uptake preincubated for 5 mins followed by ATP induction and measured after 25 mins by fluorescence assay
- Type: cell-based
Quick list: pIC50 per entry.
Quick note: pIC50 values are minus log10 of concentrations in mol/L.

Here is how some compounds turned out for pIC50.
[[record]]
compound = "COc1ccc(CC(=O)NC(N/C(=N/C#N)Nc2cccc3ncccc23)C(C)(C)C)cc1OC (centres undefined)"
study_target = "P2X purinoceptor 7 (Homo sapiens)"
test_result = 6.12

[[record]]
compound = "CCOc1ccc(Nc2ccc(/C(=C3C=C/C(=[N+](/CC)Cc4cccc(S(=O)(=O)[O-])c4)C=C/3C)c3ccc(N(CC)Cc4cccc(S(=O)(=O)[O-])c4)cc3C)cc2)cc1.[Na+]"
study_target = "P2X purinoceptor 7 (Homo sapiens)"
test_result = 5.86

[[record]]
compound = "O=C1C=C(n2cc(CCCCl)nn2)C(=O)c2c(O)cccc21"
study_target = "P2X purinoceptor 7 (Homo sapiens)"
test_result = 6.99


With P2X purinoceptor 7 (Homo sapiens) as the test system, `CCCCc1cn(C2=CC(=O)c3cccc(O)c3C2=O)nn1` showed pIC50 of 6.64

----------
- Tested on: Peritoneal macrophage
- test_description: Cytotoxicity against Swiss Webster mouse peritoneal macrophages assessed as plasma membrane disruption at 100 uM measured after 24 hrs by dextran rhodamine dye based fluorescence assay
- Type: cell-based
measurement_type: Activity

[[record]]
compound = "CCCCc1cn(C2=CC(=O)c3cccc(O)c3C2=O)nn1"
test_result = "Non-Toxic"

[[record]]
compound = "CCCc1cn(C2=CC(=O)c3cccc(O)c3C2=O)nn1"
test_result = "Toxic"

[[record]]
compound = "O=C1C=C(n2cc(CCCCl)nn2)C(=O)c2c(O)cccc21"
test_result = "Non-Toxic"

[[record]]
compound = "CCOc1ccc(Nc2ccc(/C(=C3C=C/C(=[N+](/CC)Cc4cccc(S(=O)(=O)[O-])c4)C=C/3C)c3ccc(N(CC)Cc4cccc(S(=O)(=O)[O-])c4)cc3C)cc2)cc1.[Na+]"
test_result = "Non-Toxic"

[[record]]
compound = "COc1ccc(CC(=O)NC(N/C(=N/C#N)Nc2cccc3ncccc23)C(C)(C)C)cc1OC (stereo not drawn)"
test_result = "Non-Toxic"

[[record]]
compound = "CCC(C)(O)c1cn(C2=CC(=O)c3cccc(O)c3C2=O)nn1 (stereo not drawn)"
test_result = "Non-Toxic"


So, CC(C)CC(C)(O)c1cn(C2=CC(=O)c3cccc(O)c3C2=O)nn1 (stereo not drawn) ? Its Activity was Non-Toxic

Per the records, this compound ( `O=C1C=C(n2cc(-c3ccccc3)nn2)C(=O)c2c(O)cccc21` ) has Activity equal to Toxic
